- Tested on: Saccharomyces cerevisiae
- assayNotes: protein stability index of tFT-peptide fusion (C-terminal peptide) (PSI (0-1 scale)); higher = more stable (slower turnover)
- particulars: genetic background: wild type; temperature: 30 C
Reported protein stability index values for a set of sequences
Write the number on its own, no unit after it.

Record excerpt, results attached:
[[record]]
orderedresidues = "RCQYRRTMSITI"
val = 0.635

[[record]]
orderedresidues = "CRFPFRILHPPF"
val = 0.69

[[record]]
orderedresidues = "SLKIPSPLSPVL"
val = 0.699


Incoming: Report protein stability index under test system Saccharomyces cerevisiae for SHLAYVKWYIGD .
Outgoing: 0.63

Incoming: Report protein stability index under test system Saccharomyces cerevisiae for LSGIILGWSVSG .
Outgoing: 0.676

Incoming: Report protein stability index under test system Saccharomyces cerevisiae for CFSPAAPLLLPG .
Outgoing: 0.689

Incoming: Report protein stability index under test system Saccharomyces cerevisiae for WVRLGRSWTTVG .
Outgoing: 0.422

Incoming: Report protein stability index under test system Saccharomyces cerevisiae for DIKKRQNIKDRK .
Outgoing: 0.686

Incoming: Report protein stability index under test system Saccharomyces cerevisiae for FGPDFCVRSHLS .
Outgoing: 0.719

Incoming: Report protein stability index under test system Saccharomyces cerevisiae for PPPPLTPPHLSP .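 Also: PSI is a weighted mean of sequencing reads over stability bins, variants kept only with over 10 reads, mCherry proximal and sfGFP distal, peptide attached via GGGS linker.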
Outgoing: 0.713
